For each record, write down the corresponding IC50.
experimental_target: PIM1 (Homo sapiens)
Sequence (P11309 whole entry): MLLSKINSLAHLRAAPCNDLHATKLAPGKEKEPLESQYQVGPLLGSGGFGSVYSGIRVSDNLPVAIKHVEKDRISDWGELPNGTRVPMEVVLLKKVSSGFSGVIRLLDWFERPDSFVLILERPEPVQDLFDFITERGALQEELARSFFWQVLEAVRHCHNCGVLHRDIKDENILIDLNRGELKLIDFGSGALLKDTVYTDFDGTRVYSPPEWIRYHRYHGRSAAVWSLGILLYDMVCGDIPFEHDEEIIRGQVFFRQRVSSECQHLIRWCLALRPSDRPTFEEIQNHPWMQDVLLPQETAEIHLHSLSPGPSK
method_notes: KinaseGlo Pim1 ATP depletion assay
Type: biochemical
Protocol: KinaseGlo Pim1 ATP Depletion Assay The activity of PIM1 is measured using a luciferase-luciferin based ATP detection reagent to quantify ATP depletion resulting from kinase-catalyzed phosphoryl transfer to a peptide substrate. Compounds to be tested are dissolved in 100% DMSO and directly distributed into white 384-well plates at 0.5 μA per well. […] The stopped reaction is incubated for 10 minutes and the remaining ATP detected via luminescence on the Victor2 (Perkin Elmer). […]
One number for each entry, in µM.

// known answers, use as guide
-- ask API: value(readout= IC50, system= PIM1 (Homo sapiens), query= O=C(Nc1cnccc1[C@@H]1C[C@H](O)[C@]2(O)CCC[C@@H]2O1)c1ccc(F)c(-c2c(F)cccc2F)n1 [Example 188] )
-- reply 0.0345

-- ask API: value(readout= IC50, system= PIM1 (Homo sapiens), query= C[C@@H]1O[C@H](c2ccncc2NC(=O)c2csc(-c3c(F)cccc3F)n2)C[C@H](O)[C@H]1O (stereo in doubt) [Example 135] )
-- reply 0.001

-- ask API: value(readout= IC50, system= PIM1 (Homo sapiens), query= O=C(Nc1cnccc1[C@@]1(C(F)(F)F)C[C@@H](O)CCO1)c1ccc(F)c(-c2c(F)cccc2F)n1 [Example 53] )
-- reply 0.078

-- ask API: value(readout= IC50, system= PIM1 (Homo sapiens), query= C[C@H]1O[C@@H](c2ccncc2NC(=O)c2ccc(F)c(-c3ccccc3F)n2)C[C@@H](O)[C@]1(C)O [Example 93] )
-- reply 0.001

-- ask API: value(readout= IC50, system= PIM1 (Homo sapiens), query= C[C@H]1O[C@@H](c2ccncc2NC(=O)c2cncc(-c3ccccc3)n2)C[C@@H](O)[C@]1(C)O [Example 85] )
-- reply 0.221

-- ask API: value(readout= IC50, system= PIM1 (Homo sapiens), query= Nc1ncc(-c2ccccc2)nc1C(=O)Nc1cnccc1[C@H]1C[C@@H](O)[C@@]2(O)CCC[C@H]2O1 [Example 195] )
-- reply 0.0022

Give IC50 for each listed item.
1. O=C(Nc1cnccc1[C@H]1OC[C@H](CO)O1)c1ccc(F)c(-c2c(F)cccc2F)n1 [Example 101]
2. CC[C@@H]1O[C@H](c2ccncc2NC(=O)c2nc(-c3c(F)cccc3F)c(F)cc2N)C[C@H](O)[C@@]1(C)O [Example 165]
3. C[C@@H]1O[C@H](c2ccncc2NC(=O)c2cncc(-c3ccccc3)n2)C[C@H](O)[C@@]1(C)O [Example 87]
4. C[C@H]1O[C@@H](c2ccncc2NC(=O)c2nc(-c3ccccc3)cnc2N)[C@H](F)[C@@H](O)[C@]1(C)O [Example 58]
5. CC[C@H]1O[C@@H](c2ccncc2NC(=O)c2ccnc(-c3c(F)cccc3F)n2)C[C@@H](O)[C@@H]1O [Example 34]
6. CC[C@]1(O)[C@H](O)C[C@H](c2ccncc2NC(=O)c2nc(-c3c(F)cccc3F)c(F)cc2N)O[C@@H]1C [Example 27]
7. O=C(Nc1cnccc1[C@]1(C(F)(F)F)CCCCO1)c1ccc(F)c(-c2c(F)cccc2F)n1 [Example 52]

-- reply
0.012
0.009
0.937
0.009
0.022
0.001
0.029

Give IC50 for each listed item.
1. N#C[C@H]1O[C@@H](c2ccncc2NC(=O)c2ccnc(-c3c(F)cccc3F)n2)C[C@@H](O)[C@@H]1O [Example 149]
2. CCC[C@H]1O[C@@H](c2ccncc2NC(=O)c2nc(-c3c(F)cccc3F)ncc2N)C[C@@H](O)[C@@H]1O [Example 169]
3. O=C(Nc1cnccc1[C@H]1C[C@@H](O)[C@@]2(O)CCCC[C@H]2O1)c1ccnn(-c2ccccc2F)c1=O [Example 190]
4. O=C(Nc1cnccc1[C@H]1C[C@@H](O)[C@@]2(O)CCCC[C@H]2O1)c1ccc(F)c(-c2c(F)cccc2F)n1 [Example 174]

-- reply
[0.0798, 0.0144, 0.0339, 0.0005]
